# Test system: Fusobacterium nucleatum subsp. Nucleatum;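 also: lowest concentration where monotonic median growth AUC falls below 0.75 of drug-free control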
# assay: IC25 growth inhibition; higher = less potent
measurementType: IC25 growth inhibition

[[record]]
compound = "CN(C)C(=N)NC(=N)N"
assaytarget = "Fusobacterium nucleatum subsp. Nucleatum"
measurementtype = "IC25 growth inhibition"
observed = "> 160 µM"

[[record]]
compound = "Clc1ccc(COC(Cn2ccnc2)c2ccc(Cl)cc2Cl)c(Cl)c1 (stereo not given)"
assaytarget = "Fusobacterium nucleatum subsp. Nucleatum"
measurementtype = "IC25 growth inhibition"
observed = "> 40 µM"

[[record]]
compound = "C[C@]12CCC3=C4CCC(=O)C=C4CC[C@H]3[C@@H]1CC[C@@]2(O)CC#N"
assaytarget = "Fusobacterium nucleatum subsp. Nucleatum"
measurementtype = "IC25 growth inhibition"
observed = "> 80 µM"

[[record]]
compound = "CC(=O)Oc1cccc2c1C(=O)c1c(OC(C)=O)cc(C(=O)O)cc1C2=O"
assaytarget = "Fusobacterium nucleatum subsp. Nucleatum"
measurementtype = "IC25 growth inhibition"
observed = "≤ 10 µM"

[[record]]
compound = "CN[C@H](CC(C)C)C(=O)N[C@H]1C(=O)N[C@@H](CC(N)=O)C(=O)N[C@H]2C(=O)N[C@H]3C(=O)N[C@H](C(=O)N[C@H](C(=O)O)c4cc(O)cc(O)c4-c4cc3ccc4O)[C@H](O)c3ccc(c(Cl)c3)Oc3cc2cc(c3O[C@@H]2O[C@H](CO)[C@@H](O)[C@H](O)[C@H]2O[C@H]2C[C@](C)(N)[C@H](O)[C@H](C)O2)Oc2ccc(cc2Cl)[C@H]1O"
assaytarget = "Fusobacterium nucleatum subsp. Nucleatum"
measurementtype = "IC25 growth inhibition"
observed = "≤ 160 µM"

[[record]]
compound = "CNCCC(Oc1ccc(C(F)(F)F)cc1)c1ccccc1 (stereo not given)"
assaytarget = "Fusobacterium nucleatum subsp. Nucleatum"
measurementtype = "IC25 growth inhibition"
observed = "≤ 80 µM"

[[record]]
compound = "Nc1nc(=S)c2ncn([C@@H]3O[C@H](CO)[C@@H](O)[C@H]3O)c2[nH]1"
assaytarget = "Fusobacterium nucleatum subsp. Nucleatum"
measurementtype = "IC25 growth inhibition"
observed = "> 40 µM"

[[record]]
compound = "CO[C@@H]1[C@@H](OC(N)=O)[C@@H](O)[C@H](Oc2ccc3c(O)c(NC(=O)c4ccc(O)c(CC=C(C)C)c4)c(=O)oc3c2C)OC1(C)C"
assaytarget = "Fusobacterium nucleatum subsp. Nucleatum"
measurementtype = "IC25 growth inhibition"
observed = "≤ 5 µM"

[[record]]
compound = "CN1CCN(C2=Nc3ccccc3Oc3ccc(Cl)cc32)CC1"
assaytarget = "Fusobacterium nucleatum subsp. Nucleatum"
measurementtype = "IC25 growth inhibition"
observed = "≤ 160 µM"

[[record]]
compound = "CC[C@H]1OC(=O)[C@H](C)[C@@H](O[C@H]2C[C@@](C)(OC)[C@@H](O)[C@H](C)O2)[C@H](C)[C@@H](O[C@@H]2O[C@H](C)C[C@H](N(C)C)[C@H]2O)[C@](C)(OC)C[C@@H](C)C(=O)[C@H](C)[C@@H](O)[C@]1(C)O"
assaytarget = "Fusobacterium nucleatum subsp. Nucleatum"
measurementtype = "IC25 growth inhibition"
observed = "≤ 5 µM"

[[record]]
compound = "CN[C@H]1CC[C@@H](c2ccc(Cl)c(Cl)c2)c2ccccc21"
assaytarget = "Fusobacterium nucleatum subsp. Nucleatum"
measurementtype = "IC25 growth inhibition"
observed = "≤ 160 µM"

[[record]]
compound = "C/C=C(/C(=C/C)c1ccc(O)cc1)c1ccc(O)cc1"
assaytarget = "Fusobacterium nucleatum subsp. Nucleatum"
measurementtype = "IC25 growth inhibition"
observed = "> 40 µM"

[[record]]
compound = "CCCc1nc2c(C)cc(-c3nc4ccccc4n3C)cc2n1Cc1ccc(-c2ccccc2C(=O)O)cc1"
assaytarget = "Fusobacterium nucleatum subsp. Nucleatum"
measurementtype = "IC25 growth inhibition"
observed = "> 80 µM"

[[record]]
compound = "C[C@H]1c2cccc(O)c2C(=O)C2=C(O)[C@]3(O)C(=O)C(C(N)=O)=C(O)[C@@H](N(C)C)[C@@H]3[C@@H](O)[C@@H]21"
assaytarget = "Fusobacterium nucleatum subsp. Nucleatum"
measurementtype = "IC25 growth inhibition"
observed = "< 1.25 µM"

[[record]]
compound = "O=C(O)Cc1cc(I)c(Oc2ccc(O)c(I)c2)c(I)c1"
assaytarget = "Fusobacterium nucleatum subsp. Nucleatum"
measurementtype = "IC25 growth inhibition"
observed = "≤ 40 µM"

